Recorded values, source the Human Domainome abundance scans (Beltran et al. 2025).

B1: Zinc finger homeobox protein 3, residues 2147 to 2202; numbered along this chain, Q15911 (parent)
chain: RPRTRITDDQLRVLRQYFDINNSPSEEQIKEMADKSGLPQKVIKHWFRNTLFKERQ

variants of: B1; experiment: abundance fitness (aPCA) (normalised: wild type 0, dead -1); higher = more abundant; growth selection in yeast, the domain comes from the species named; conditions: Homo sapiens

>  <input-sequence>
RPRIRITDDQLRVLRQYFDINNSPSEEQIKEMADKSGLPQKVIKHWFRNTLFKERQ [T4I]

>  <abundance fitness>
-0.02

$$$$
>  <input-sequence>
RPRTRITDDQLRVFRQYFDINNSPSEEQIKEMADKSGLPQKVIKHWFRNTLFKERQ [L14F]

>  <abundance fitness>
-0.064

$$$$
>  <input-sequence>
RPRTRITDDQLRVLRQYFDINNSPSEEQIKEMARKSGLPQKVIKHWFRNTLFKERQ [D34R]

>  <abundance fitness>
-0.086

$$$$
>  <input-sequence>
RPRTRITDDQLRVLRQYFDINNSPSEEQIKEMADHSGLPQKVIKHWFRNTLFKERQ [K35H]

>  <abundance fitness>
-0.536

$$$$
>  <input-sequence>
RPRTRITDDQLRVLRQYFDINNSPSEEDIKEMADKSGLPQKVIKHWFRNTLFKERQ [Q28D]

>  <abundance fitness>
-0.278

$$$$
>  <input-sequence>
RPRTRITDDQLRVLRQYFDINNSPSEEQIKEMADKSGLPQKVKKHWFRNTLFKERQ [I43K]

>  <abundance fitness>
-0.945

$$$$
>  <input-sequence>
RPRTRITDDQLRVLRQYFDINNSPSEEQLKEMADKSGLPQKVIKHWFRNTLFKERQ [I29L]

>  <abundance fitness>
0.09

$$$$
>  <input-sequence>
RPRTRITDDQLRVLRQYFDINNSPSEEQIKEMADKSGLPQKVIKHFFRNTLFKERQ [W46F]

>  <abundance fitness>
-0.163

$$$$
>  <input-sequence>
RPRTRITDDQLRVLRQYFDINNSPSQEQIKEMADKSGLPQKVIKHWFRNTLFKERQ [E26Q]

>  <abundance fitness>
0.171

$$$$
>  <input-sequence>
RPRTRITDWQLRVLRQYFDINNSPSEEQIKEMADKSGLPQKVIKHWFRNTLFKERQ [D9W]

>  <abundance fitness>
-0.171

$$$$
>  <input-sequence>
RPRTRITDDQLRVLRQYFDINNSPSEEQIKEMADKSGLPQKVIKHWCRNTLFKERQ [F47C]

>  <abundance fitness>
-0.169

$$$$
>  <input-sequence>
RPRTRITDDQLRVLRQYFDINNSPSEEQIKEMADKSGPPQKVIKHWFRNTLFKERQ [L38P]

>  <abundance fitness>
-0.858

$$$$
>  <input-sequence>
RPRTRITDDQLRVLRQYFDINNSPSEEQIKEMADKSGLPQKVIKHWFRNKLFKERQ [T50K]

>  <abundance fitness>
0.094

$$$$
>  <input-sequence>
RPRTRITDDQLRVLRQYFDINNSPSEEQDKEMADKSGLPQKVIKHWFRNTLFKERQ [I29D]

>  <abundance fitness>
-1.17

$$$$
>  <input-sequence>
RPRTRITDDQLRVLRQYQDINNSPSEEQIKEMADKSGLPQKVIKHWFRNTLFKERQ [F18Q]

>  <abundance fitness>
-0.203

$$$$
>  <input-sequence>
RPRTRITDDQLRVLRQYFDINNSPSEEQIKEMADKSGLPQKVAKHWFRNTLFKERQ [I43A]

>  <abundance fitness>
-0.534

$$$$
>  <input-sequence>
RPRTNITDDQLRVLRQYFDINNSPSEEQIKEMADKSGLPQKVIKHWFRNTLFKERQ [R5N]

>  <abundance fitness>
0.201

$$$$
>  <input-sequence>
RPRTRQTDDQLRVLRQYFDINNSPSEEQIKEMADKSGLPQKVIKHWFRNTLFKERQ [I6Q]

>  <abundance fitness>
-0.529

$$$$
>  <input-sequence>
RPRTRITDDQLRVLRQYFDINNSPSEEQITEMADKSGLPQKVIKHWFRNTLFKERQ [K30T]

>  <abundance fitness>
-0.061

$$$$
>  <input-sequence>
RPRTRITDDQLRVLRQYFDINNSPSEEQIKEMADKSGLPQKVIKHWFRHTLFKERQ [N49H]

>  <abundance fitness>
-0.451

$$$$
>  <input-sequence>
RPRTRITDDQLRVLRQYFDINNSPSEEQIKTMADKSGLPQKVIKHWFRNTLFKERQ [E31T]

>  <abundance fitness>
-0.011

$$$$
>  <input-sequence>
RPRTRITDDQLRVLRQYFDINNSPSEEQIKEMADKSGLPQKVIKYWFRNTLFKERQ [H45Y]

>  <abundance fitness>
-0.036

$$$$
>  <input-sequence>
RPRTRITDDQLRVLRQYFDINNSSSEEQIKEMADKSGLPQKVIKHWFRNTLFKERQ [P24S]

>  <abundance fitness>
-1

$$$$
>  <input-sequence>
RPRTRITDDQLRVLRQYFDQNNSPSEEQIKEMADKSGLPQKVIKHWFRNTLFKERQ [I20Q]

>  <abundance fitness>
-0.019

$$$$
>  <input-sequence>
RPRTRDTDDQLRVLRQYFDINNSPSEEQIKEMADKSGLPQKVIKHWFRNTLFKERQ [I6D]

>  <abundance fitness>
-0.484

$$$$
>  <input-sequence>
RPRTRSTDDQLRVLRQYFDINNSPSEEQIKEMADKSGLPQKVIKHWFRNTLFKERQ [I6S]

>  <abundance fitness>
-0.46

$$$$
>  <input-sequence>
RPRTRITDDQLRVLRQYFDINNSPSEEQIKRMADKSGLPQKVIKHWFRNTLFKERQ [E31R]

>  <abundance fitness>
-0.282

$$$$
>  <input-sequence>
RPRTRITDDQLRVLRQYFDINNSPSEEQIKEMADKSGLPQKVIFHWFRNTLFKERQ [K44F]

>  <abundance fitness>
-0.175

$$$$
>  <input-sequence>
RPRTRITDDQLRVLRQYFDINNSPSEEQIKERADKSGLPQKVIKHWFRNTLFKERQ [M32R]

>  <abundance fitness>
-1.18

$$$$
>  <input-sequence>
RPRTRITDDQLRVDRQYFDINNSPSEEQIKEMADKSGLPQKVIKHWFRNTLFKERQ [L14D]

>  <abundance fitness>
-0.932

$$$$
>  <input-sequence>
RPRTRITDDQLRVVRQYFDINNSPSEEQIKEMADKSGLPQKVIKHWFRNTLFKERQ [L14V]

>  <abundance fitness>
-0.49

$$$$
>  <input-sequence>
RPRTRITDDQLRVLRQYFDINNSPSDEQIKEMADKSGLPQKVIKHWFRNTLFKERQ [E26D]

>  <abundance fitness>
0.063

$$$$
>  <input-sequence>
RPRTRITDDQLRVLRQYFDINNSPSEEQIKEMADKSGLPQKVIEHWFRNTLFKERQ [K44E]

>  <abundance fitness>
-0.146

$$$$
>  <input-sequence>
RPWTRITDDQLRVLRQYFDINNSPSEEQIKEMADKSGLPQKVIKHWFRNTLFKERQ [R3W]

>  <abundance fitness>
-0.57

$$$$
>  <input-sequence>
RPRTRITDDQLRVLRQYFDINNSPSEEQIKEMADKSGLPQKVIKHWFRETLFKERQ [N49E]

>  <abundance fitness>
0.153

$$$$
>  <input-sequence>
RPRTRITDDQLRVLRQYFDINNSPSEEQIPEMADKSGLPQKVIKHWFRNTLFKERQ [K30P]

>  <abundance fitness>
-0.679

$$$$
>  <input-sequence>
RPRTRITDDQLRVLRQYFDINNSPSEEQIKEMADKSGLPQKVIKHWFRNTLMKERQ [F52M]

>  <abundance fitness>
0.101

$$$$
>  <input-sequence>
RNRTRITDDQLRVLRQYFDINNSPSEEQIKEMADKSGLPQKVIKHWFRNTLFKERQ [P2N]

>  <abundance fitness>
0.28

$$$$
>  <input-sequence>
RPRTRITDDQLRVLRQYFKINNSPSEEQIKEMADKSGLPQKVIKHWFRNTLFKERQ [D19K]

>  <abundance fitness>
0.101

$$$$
>  <input-sequence>
RPRTRITDLQLRVLRQYFDINNSPSEEQIKEMADKSGLPQKVIKHWFRNTLFKERQ [D9L]

>  <abundance fitness>
-0.106

$$$$
>  <input-sequence>
RPRTRITDDQLRVLRQYFVINNSPSEEQIKEMADKSGLPQKVIKHWFRNTLFKERQ [D19V]

>  <abundance fitness>
0.014

$$$$
>  <input-sequence>
RPRTRITDDQLRVLRQYFDINNSPSEEQIKEMADKSGLPQKVIKHWFRNTLFMERQ [K53M]

>  <abundance fitness>
0.09

$$$$
>  <input-sequence>
RPRTRITDDQLRVLRQYFDINNSPSEEQIKEMADKHGLPQKVIKHWFRNTLFKERQ [S36H]

>  <abundance fitness>
-0.057

$$$$
>  <input-sequence>
RPRTRITDDQLRVLRQYNDINNSPSEEQIKEMADKSGLPQKVIKHWFRNTLFKERQ [F18N]

>  <abundance fitness>
-0.451

$$$$
>  <input-sequence>
RPRTRITDDQLRVLRQYFDINNHPSEEQIKEMADKSGLPQKVIKHWFRNTLFKERQ [S23H]

>  <abundance fitness>
0.055

$$$$
>  <input-sequence>
RPRTRITDDQLRVLRQYFDINNSPSEEQIKEMADKSGLPQKVIKHWFINTLFKERQ [R48I]

>  <abundance fitness>
-0.009

$$$$
